conditionInfo: 302.2 K; Liquid
Numbers after ± are expanded uncertainties.

# smilesInput, vapor or sublimation pressure
measured = [
    ("CCOC(C)(C)CC", "7.186 ± 0.56 kPa"),
    ("CCCCOC(C)(C)CC(C)(C)C", "0.0797 ± 0.0062 kPa"),
    ("CCCOC(C)(C)CC(C)(C)C", "0.2825 ± 0.022 kPa"),
    ("CCCOC(C)(C)CC", "2.332 ± 0.18 kPa"),
]

----------
In this section we review reported vapor or sublimation pressure values for a set of compounds.
conditionInfo: 276.2 K; Liquid

# smilesInput, unitSpec, vapor or sublimation pressure
measured = [
    ("COC(C)(C)CC(C)(C)C", "kPa", 0.1656),
    ("CCCCOC(C)(C)CC", "kPa", 0.1278),
    ("CCCOC(C)(C)CC", "kPa", 0.4448),
    ("CCOC(C)(C)CC", "kPa", 1.614),
    ("CCC(C)(C)OC", "kPa", 2.998),
]
